test: Phase 1 clinical trial, Part I single ascending doses, plasma pharmacokinetics; format: in vivo, human (healthy male volunteers); conditions: male, human, plasma; single oral dose 240 mg (Treatment D, n = 6), Day 1, geom. mean
measure: AUC(0-t) (µg·h/mL)
Record the value in µg·h/mL, omitting the unit from your answer.

// AUC(0-t) lookup, molecule = "COc1ccc2c(c1)CN(Cc1ccc(C(=O)O)cc1)CCS2.O=C(O)/C=C/C(=O)O" , result: 451

----------
experiment: Phase 1b study in RYR1-Related Myopathy patients, plasma pharmacokinetics; type: in vivo, human (RYR1-Related Myopathy patients); conditions: human, plasma, po, 200 mg, single oral 200 mg, three subjects, time 24 hr
measure: concentration at 24 h (ng/mL)
Record the value in ng/mL, omitting the unit from your answer.

// concentration at 24 h lookup, compound = COc1ccc2c(c1)CN(Cc1ccc(C(=O)O)cc1)CCS2.O=C(O)/C=C/C(=O)O [Compound I] , result: 5520
